The origin of these recorded values is patent US20230119539A1.

Item-by-item account of percentage of the remaining compound
Assay: pH stability of quenched linker-payloads in buffers (LCMS)
Assay type: physicochemical
Conditions: pH 4.0, 4 hr, RT
Express the result in % but write the number alone.

Here are 3 molecules together with their reported answers.
[
  {
    "molecule": "CCCC1O[C@@H]2C[C@H]3[C@@H]4CCC5=CC(=O)C=C[C@]5(C)[C@H]4[C@@H](O)C[C@]3(C)[C@]2(C(=O)COC2CCCN2C(=O)CNC(=O)CCOCCOCCOCCOCCNC(=O)CCC(=O)N2Cc3ccccc3-c3c(nnn3CC3OC4OC5C(CO)OC(OC6C(CO)OC(OC7C(CO)OC(OC8C(CO)OC(OC9C(CO)OC(OC3C(O)C4O)C(O)C9O)C(O)C8O)C(O)C7O)C(O)C6O)C(O)C5O)-c3ccccc32)O1 (stereo partly shown)",
    "percentage of the remaining compound (%)": 71
  },
  {
    "molecule": "CCCC1O[C@@H]2C[C@H]3[C@@H]4CCC5=CC(=O)C=C[C@]5(C)[C@H]4[C@@H](O)C[C@]3(C)[C@]2(C(=O)COCNC(=O)CNC(=O)CCC(=O)N2Cc3ccccc3-c3c(nnn3CC3OC4OC5C(CO)OC(OC6C(CO)OC(OC7C(CO)OC(OC8C(CO)OC(OC9C(CO)OC(OC3C(O)C4O)C(O)C9O)C(O)C8O)C(O)C7O)C(O)C6O)C(O)C5O)-c3ccccc32)O1 (stereo partly shown)",
    "percentage of the remaining compound (%)": 100
  },
  {
    "molecule": "CC(C)[C@H](NC(=O)CCOCCOCCOCCOCCNC(=O)CCC(=O)N1Cc2ccccc2-c2c(nnn2CCOCCOCCOCCOCCC(=O)NCCS(=O)(=O)O)-c2ccccc21)C(=O)N[C@@H](CCCNC(N)=O)C(=O)Nc1ccc(COC(=O)NCC(=O)NCOCC(=O)[C@@]2(O)[C@H](C)C[C@H]3[C@@H]4CCC5=CC(=O)C=C[C@]5(C)[C@@]4(F)[C@@H](O)C[C@@]32C)cc1",
    "percentage of the remaining compound (%)": 100
  }
]

Let us move to another entry and its percentage of the remaining compound.
q: Form field: reported percentage of the remaining compound of CCCC1O[C@@H]2C[C@H]3[C@@H]4CCC5=CC(=O)C=C[C@]5(C)[C@H]4[C@@H](O)C[C@]3(C)[C@]2(C(=O)COCN(C)C(=O)CNC(=O)OCc2ccc(NC(=O)[C@H](CCCNC(N)=O)NC(=O)[C@@H](NC(=O)CCOCCOCCOCCOCCNC(=O)CCC(=O)N3Cc4ccccc4-c4c(nnn4CCOCCOCCOCCOCCC(=O)NCCS(=O)(=O)O)-c4ccccc43)C(C)C)cc2)O1 (stereo partly shown)
a: 100

---

Assay: pH stability of quenched linker-payloads in buffers (LCMS)
Format: physicochemical
Details: pH 4.0, day 7
Item-by-item account of P: percentage of budesonide released from the linker-payloads
Express the result in % but write the number alone.

Here are 3 compounds together with their reported answers.
[
  {
    "compound": "CCCC1OC2CC3C4CCC5=CC(=O)C=CC5(C)C4C(O)CC3(C)C2(C(=O)COC2CCN2C(=O)CNC(=O)CCOCCOCCOCCOCCNC(=O)CCC(=O)N2Cc3ccccc3-c3c(nnn3CCOCCOCCOCCOCCC(=O)NCCS(=O)(=O)O)-c3ccccc32)O1 (mixture of isomers)",
    "number": 0
  },
  {
    "compound": "CCCC1OC2CC3C4CCC5=CC(=O)C=CC5(C)C4C(O)CC3(C)C2(C(=O)COCN2CCCC(NC(=O)OCc3ccc(NC(=O)C(CCCNC(N)=O)NC(=O)C(NC(=O)CCOCCOCCOCCOCCNC(=O)CCC(=O)N4Cc5ccccc5-c5c(nnn5CCOCCOCCOCCOCCC(=O)NCCS(=O)(=O)O)-c5ccccc54)C(C)C)cc3)C2=O)O1 (mixture of isomers)",
    "number": 0
  },
  {
    "compound": "CCCC1O[C@@H]2C[C@H]3[C@@H]4CCC5=CC(=O)C=C[C@]5(C)[C@H]4[C@@H](O)C[C@]3(C)[C@]2(C(=O)COCNC(=O)CNC(=O)OCc2ccc(O[C@@H]3O[C@H](CO)[C@@H](O)[C@H](O)[C@H]3O)c(C(=O)NCCNC(=O)COC3C#CCCCCC3)c2)O1 (some centres unmarked)",
    "number": 0
  }
]

q: Form field: reported P: percentage of budesonide released from the linker-payloads of CCCC1O[C@@H]2C[C@H]3[C@@H]4CCC5=CC(=O)C=C[C@]5(C)[C@H]4[C@@H](O)C[C@]3(C)[C@]2(C(=O)COCN(C)C(=O)CNC(=O)OCc2ccc(NC(=O)[C@H](CCCNC(N)=O)NC(=O)[C@@H](NC(=O)CCOCCOCCOCCOCCNC(=O)CCC(=O)N3Cc4ccccc4-c4c(nnn4CCOCCOCCOCCOCCC(=O)NCCS(=O)(=O)O)-c4ccccc43)C(C)C)cc2)O1 (some centres unmarked)
a: 3

q: Form field: reported P: percentage of budesonide released from the linker-payloads of CCCC1O[C@@H]2C[C@H]3[C@@H]4CCC5=CC(=O)C=C[C@]5(C)[C@H]4[C@@H](O)C[C@]3(C)[C@]2(C(=O)COC2CCCN2C(=O)CNC(=O)CCOCCOCCOCCOCCNC(=O)CCC(=O)N2Cc3ccccc3-c3c(nnn3CCOCCOCCOCCOCCC(=O)NCCS(=O)(=O)O)-c3ccccc32)O1 (some centres unmarked)
a: 99

---

Item-by-item account of percentage of the remaining compound
Assay: pH stability of quenched linker-payloads in buffers (LCMS)
Type: physicochemical
Details: pH 4.0, 2 Day, RT
Protocol: To a solution of compound (payloads or quenched-linker-payloads) in DMSO (0.2-1.0 mg/mL) was added corresponding PBS buffer (V(buffer)/V(DMSO)=5) to give test samples (pH 3, 4, 5, 6, 7.4, and 8.5, or other special pH). The test samples were incubated at RT for at least 3 days and monitored by LCMS (i.e., at 1 hr, 2 hr, 4 hr, 8 hr, and 1 day, 2 day, 3 day, 4 day, 5 day, 6 day, 7 day, 8 day, 9 day, and 21 day time points). Initial concentrations of the samples were 0.2 mg/mL (DMSO/buffer, v/v=1/5). […]
Express the result in % but write the number alone.

q: Form field: reported percentage of the remaining compound of CCCC1O[C@@H]2C[C@H]3[C@@H]4CCC5=CC(=O)C=C[C@]5(C)[C@H]4[C@@H](O)C[C@]3(C)[C@]2(C(=O)COC2CCCN2C(=O)CNC(=O)CCOCCOCCOCCOCCNC(=O)CCC(=O)N2Cc3ccccc3-c3c(nnn3CC3OC4OC5C(CO)OC(OC6C(CO)OC(OC7C(CO)OC(OC8C(CO)OC(OC9C(CO)OC(OC3C(O)C4O)C(O)C9O)C(O)C8O)C(O)C7O)C(O)C6O)C(O)C5O)-c3ccccc32)O1 (stereo partly shown) [Q2L6-PII-9]
a: 8

---

Molecular target: GR (Homo sapiens)
Construct: host or cells: HEK293 (HEK293/GRLuc; HEK293/GRLuc/MSR1 additionally transduced with human MSR1)
Sequence (P04150 524-758 limits assumed): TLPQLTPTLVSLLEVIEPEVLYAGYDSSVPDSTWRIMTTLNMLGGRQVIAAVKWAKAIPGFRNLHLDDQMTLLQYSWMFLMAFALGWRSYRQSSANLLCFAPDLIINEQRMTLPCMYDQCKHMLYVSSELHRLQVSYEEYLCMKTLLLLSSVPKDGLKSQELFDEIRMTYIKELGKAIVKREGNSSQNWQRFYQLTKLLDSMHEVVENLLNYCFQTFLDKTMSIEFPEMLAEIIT
Assay: GR luciferase reporter assay in HEK293/GRLuc/MSR1 cells
Format: cell-based
Settings: Table 8b, free payloads, HEK293/GRLuc/MSR1, 48 hours
Item-by-item account of pEC50
Bear in mind: pEC50 is minus log10 of a mol/L concentration; give just that figure.

[
  {
    "molecule": "CCCC1O[C@@H]2C[C@H]3[C@@H]4C[C@H](F)C5=CC(=O)C=C[C@]5(C)[C@@]4(F)[C@@H](O)C[C@]3(C)[C@]2(C(=O)COCNC(=O)CN)O1 (some centres unmarked)",
    "pEC50": 10.26
  }
]

Let us move to another entry and its pEC50.
q: Form field: reported pEC50 of CCCC1O[C@@H]2C[C@H]3[C@@H]4C[C@H](F)C5=CC(=O)C=C[C@]5(C)[C@@]4(F)[C@@H](O)C[C@]3(C)[C@]2(C(=O)CO)O1 (some centres unmarked)
a: 10.62
